assayName: Metabolic stability in mouse liver microsomes assessed as parent compound remaining at 0.5 uM preincubated for 6 mins followed by NADPH addition measured after 10 mins by LC-MS/MS analysis
Assay type: ADME, microsome
assaySetup: read-out: Stability
Recorded remaining at 10 min, 0.5 µM by entry
In your response, put the unit directly after the numeric value.

// below: answered compounds
[[record]]
compound = "COc1ccc(-c2cc(C(F)(F)F)c3c(N)ncnn23)cc1N1CCN(C(C)=O)C(C)(C)C1=O"
assayvalue = "100%"

[[record]]
compound = "CC(=O)N1CCN(c2cccc(-c3cc(C(F)(F)F)c4c(N)ncnn34)c2)C(=O)C1(C)C"
assayvalue = "30%"

[[record]]
compound = "CC(=O)N1CCN(c2cc(-c3cc(C(F)(F)F)c4c(N)ncnn34)ccc2C(F)(F)F)C(=O)C1(C)C"
assayvalue = "99%"

[[record]]
compound = "CC(=O)N1C[C@@H](C)N(c2cc(-c3cc(Cl)c4c(N)ncnn34)ccc2C#N)C(=O)C1(C)C"
assayvalue = "22%"

[[record]]
compound = "CC(=O)N1CCN(c2cc(-c3cc(Cl)c4c(N)ncnn34)ccc2Cl)C(=O)C1(C)C"
assayvalue = "67%"


Report remaining at 10 min, 0.5 µM for CC(=O)N1C[C@H](C)N(c2cc(-c3cc(Cl)c4c(N)ncnn34)ccc2C#N)C(=O)C1(C)C please.
85%

====

assayName: Metabolic stability in rat liver microsomes assessed as parent compound remaining at 0.5 uM preincubated for 6 mins followed by NADPH addition measured after 10 mins by LC-MS/MS analysis
Assay type: ADME, microsome
assaySetup: read-out: Stability
Recorded remaining at 10 min, 0.5 µM by entry
Just the number in %, nothing appended.

[[record]]
smilesentry = "CC(=O)N1CCN(c2cccc(-c3cc(C(F)(F)F)c4c(N)ncnn34)c2)C(=O)C1(C)C"
assayvalue = 52

[[record]]
smilesentry = "CC(=O)N1CCN(c2cc(-c3cc(C(F)(F)F)c4c(N)ncnn34)ccc2C#N)C(=O)C1(C)C"
assayvalue = 91


From here, focus on the item given below.
Report remaining at 10 min, 0.5 µM for CC(=O)N1C[C@@H](C)N(c2cc(-c3cc(C(F)(F)F)c4c(N)ncnn34)ccc2C#N)C(=O)C1(C)C please.
43

====

assayName: Metabolic stability in mouse liver microsomes assessed as parent compound remaining at 0.5 uM preincubated for 6 mins followed by NADPH addition measured after 10 mins by LC-MS/MS analysis
Type: ADME, microsome
assaySetup: read-out: Stability
Recorded remaining at 10 min, 0.5 µM by entry
Just the number in %, nothing appended.

// below: answered compounds
[[record]]
compound = "CC(=O)N1CCN(c2cc(-c3cc(C(F)(F)F)c4c(N)ncnn34)ccc2C(C)O)C(=O)C1(C)C (racemic)"
measurementname = "remaining at 10 min, 0.5 µM"
assayvalue = 100

[[record]]
compound = "CC(=O)N1CCN(c2cc(-c3cc(Cl)c4c(N)ncnn34)ccc2C(F)(F)F)C(=O)C1(C)C"
measurementname = "remaining at 10 min, 0.5 µM"
assayvalue = 88


Report remaining at 10 min, 0.5 µM for CC(=O)N1CCN(c2cc(-c3cc(C(F)(F)F)c4c(N)ncnn34)ccc2S(C)(=O)=O)C(=O)C1(C)C please.
97

====

assayName: Metabolic stability in human liver microsomes assessed as parent compound remaining at 0.5 uM preincubated for 6 mins followed by NADPH addition measured after 10 mins by LC-MS/MS analysis
Format: ADME, microsome
assaySetup: read-out: Stability
measurementName: remaining at 10 min, 0.5 µM (%)
Just the number in %, nothing appended.

// below: answered compounds
[[record]]
compound = "CC(=O)N1CCN(c2cc(-c3cc(C(F)(F)F)c4c(N)ncnn34)ccc2C(F)(F)F)C(=O)C1(C)C"
measurementname = "remaining at 10 min, 0.5 µM"
unitdescriptor = "%"
assayvalue = 70

[[record]]
compound = "CC(=O)N1CCN(c2cc(-c3cc(Cl)c4c(N)ncnn34)ccc2C(C)O)C(=O)C1(C)C (racemic)"
measurementname = "remaining at 10 min, 0.5 µM"
unitdescriptor = "%"
assayvalue = 100

[[record]]
compound = "CC(=O)N1CCN(c2cccc(-c3cc(Cl)c4c(N)ncnn34)c2C)C(=O)C1(C)C"
measurementname = "remaining at 10 min, 0.5 µM"
unitdescriptor = "%"
assayvalue = 84


From here, focus on the item given below.
Report remaining at 10 min, 0.5 µM for COc1ccc(-c2cc(Cl)c3c(N)ncnn23)cc1N1CCN(C(C)=O)C(C)(C)C1=O please.
94

====

assayName: Metabolic stability in human liver microsomes assessed as parent compound remaining at 0.5 uM preincubated for 6 mins followed by NADPH addition measured after 10 mins by LC-MS/MS analysis
Format: ADME, microsome
assaySetup: read-out: Stability
Recorded remaining at 10 min, 0.5 µM by entry
Just the number in %, nothing appended.

// below: answered compounds
[[record]]
compound = "CC(=O)N1C[C@H](C)N(c2cc(-c3cc(Cl)c4c(N)ncnn34)ccc2C#N)C(=O)C1(C)C"
assayvalue = 99

[[record]]
compound = "CC(=O)N1CCN(c2cc(-c3cc(C(F)(F)F)c4c(N)ncnn34)ccc2C(C)O)C(=O)C1(C)C (racemic)"
assayvalue = 100

[[record]]
compound = "CC(=O)N1CCN(c2cccc(-c3cc(-c4ccnn4CC(F)(F)F)c4c(N)ncnn34)c2)C(=O)C1(C)C"
assayvalue = 80

[[record]]
compound = "CC(=O)N1CCN(c2cc(-c3cc(Cl)c4c(N)ncnn34)ccc2C)C(=O)C1(C)C"
assayvalue = 82


From here, focus on the item given below.
Report remaining at 10 min, 0.5 µM for CC(=O)N1CCN(c2cc(-c3cc(C(F)(F)F)c4c(N)ncnn34)ccc2S(C)(=O)=O)C(=O)C1(C)C please.
96

====

assayName: Metabolic stability in mouse liver microsomes assessed as parent compound remaining at 0.5 uM preincubated for 6 mins followed by NADPH addition measured after 10 mins by LC-MS/MS analysis
Assay type: ADME, microsome
assaySetup: read-out: Stability
measurementName: remaining at 10 min, 0.5 µM
In your response, put the unit directly after the numeric value.

// below: answered molecules
[[record]]
molecule = "CC(=O)N1CCN(c2cccc(-c3cc(-c4ccnn4C4CCOCC4)c4c(N)ncnn34)c2)C(=O)C1(C)C"
measurementname = "remaining at 10 min, 0.5 µM"
assayvalue = "53%"

[[record]]
molecule = "CC(=O)N1CCN(c2cccc(-c3cc(-c4ccnn4CC(F)(F)F)c4c(N)ncnn34)c2)C(=O)C1(C)C"
measurementname = "remaining at 10 min, 0.5 µM"
assayvalue = "62%"

[[record]]
molecule = "COc1ccc(-c2cc(Cl)c3c(N)ncnn23)cc1N1CCN(C(C)=O)C(C)(C)C1=O"
measurementname = "remaining at 10 min, 0.5 µM"
assayvalue = "94%"

[[record]]
molecule = "CC(=O)N1CCN(c2cc(C)cc(-c3cc(Cl)c4c(N)ncnn34)c2)C(=O)C1(C)C"
measurementname = "remaining at 10 min, 0.5 µM"
assayvalue = "45%"

[[record]]
molecule = "CC(=O)N1CCN(c2cc(-c3cc(Cl)c4c(N)ncnn34)ccc2C)C(=O)C1(C)C"
measurementname = "remaining at 10 min, 0.5 µM"
assayvalue = "66%"

[[record]]
molecule = "CC(=O)N1CCN(c2cc(-c3cc(C(F)(F)F)c4c(N)ncnn34)ccc2C#N)C(=O)C1(C)C"
measurementname = "remaining at 10 min, 0.5 µM"
assayvalue = "81%"

[[record]]
molecule = "CC(=O)N1CCN(c2cccc(-c3cc(Cl)c4c(N)ncnn34)c2C)C(=O)C1(C)C"
measurementname = "remaining at 10 min, 0.5 µM"
assayvalue = "1%"


From here, focus on the item given below.
Report remaining at 10 min, 0.5 µM for CC(=O)N1CCN(c2cc(-c3cc(Cl)c4c(N)ncnn34)ccc2C(C)O)C(=O)C1(C)C (racemic) please.
100%
